The origin of these recorded values is patent US12624050B2.

biological target: PI3Kδ (Homo sapiens); construct: purchased Carna #11-103; assay: ADP-Glo Lipid Kinase Assay, PI3Kδ kinase activity; assay type: biochemical; details: ratio of IC50 values
We begin with a simple list: items and their reported Selectivity of PI3Kα vs PI3Kδ.
Provide a numeric answer; units are not to be included.

Below, 2 compounds whose answers are already recorded.
1. C[C@H](Nc1ccc2c(c1)OCCn1cc(N3C(=O)N(C)C[C@H]3C(F)F)nc1-2)C(N)=O: 75
2. CC(Nc1ccc2c(c1)OCCn1cc(N3C(=O)OC(C)[C@H]3C(F)F)nc1-2)C(N)=O (stereo in doubt): 125

**Query** Lookup: Selectivity of PI3Kα vs PI3Kδ / PI3Kδ (Homo sapiens) / C[C@H](Nc1ccc2c(c1)OCCn1cc(N3C(=O)SC[C@H]3C(F)F)nc1-2)C(N)=O
**Result** 245

**Query** What about COC[C@H](Nc1ccc2c(c1)OCCn1cc(N3C(=O)SC[C@H]3C(F)F)nc1-2)C(N)=O ?
**Result** 139

**Query** What about C[C@H](Nc1cc(F)c2c(c1)OCCn1cc(N3C(=O)OC[C@H]3C(F)F)nc1-2)C(N)=O ?
**Result** 88

**Query** What about C[C@@H](C(N)=O)N(C)c1ccc2c(c1)OCCn1cc(N3C(=O)OC[C@H]3C(F)F)nc1-2 ?
**Result** 29

**Query** What about C[C@H](Nc1ccc2c(c1)SCCn1cc(N3C(=O)OC[C@H]3C(F)F)nc1-2)C(N)=O ?
**Result** 280

----------
We begin with a simple list: items and their reported Selectivity of PI3Kα vs PI3Kδ.
molecular target: PI3Kδ (Homo sapiens, UniProt O00329); construct: purchased Carna #11-103; test: ADP-Glo Lipid Kinase Assay, PI3Kδ kinase activity; assay type: biochemical; details: ratio of IC50 values
Sequence (O00329 whole entry, one chain of several): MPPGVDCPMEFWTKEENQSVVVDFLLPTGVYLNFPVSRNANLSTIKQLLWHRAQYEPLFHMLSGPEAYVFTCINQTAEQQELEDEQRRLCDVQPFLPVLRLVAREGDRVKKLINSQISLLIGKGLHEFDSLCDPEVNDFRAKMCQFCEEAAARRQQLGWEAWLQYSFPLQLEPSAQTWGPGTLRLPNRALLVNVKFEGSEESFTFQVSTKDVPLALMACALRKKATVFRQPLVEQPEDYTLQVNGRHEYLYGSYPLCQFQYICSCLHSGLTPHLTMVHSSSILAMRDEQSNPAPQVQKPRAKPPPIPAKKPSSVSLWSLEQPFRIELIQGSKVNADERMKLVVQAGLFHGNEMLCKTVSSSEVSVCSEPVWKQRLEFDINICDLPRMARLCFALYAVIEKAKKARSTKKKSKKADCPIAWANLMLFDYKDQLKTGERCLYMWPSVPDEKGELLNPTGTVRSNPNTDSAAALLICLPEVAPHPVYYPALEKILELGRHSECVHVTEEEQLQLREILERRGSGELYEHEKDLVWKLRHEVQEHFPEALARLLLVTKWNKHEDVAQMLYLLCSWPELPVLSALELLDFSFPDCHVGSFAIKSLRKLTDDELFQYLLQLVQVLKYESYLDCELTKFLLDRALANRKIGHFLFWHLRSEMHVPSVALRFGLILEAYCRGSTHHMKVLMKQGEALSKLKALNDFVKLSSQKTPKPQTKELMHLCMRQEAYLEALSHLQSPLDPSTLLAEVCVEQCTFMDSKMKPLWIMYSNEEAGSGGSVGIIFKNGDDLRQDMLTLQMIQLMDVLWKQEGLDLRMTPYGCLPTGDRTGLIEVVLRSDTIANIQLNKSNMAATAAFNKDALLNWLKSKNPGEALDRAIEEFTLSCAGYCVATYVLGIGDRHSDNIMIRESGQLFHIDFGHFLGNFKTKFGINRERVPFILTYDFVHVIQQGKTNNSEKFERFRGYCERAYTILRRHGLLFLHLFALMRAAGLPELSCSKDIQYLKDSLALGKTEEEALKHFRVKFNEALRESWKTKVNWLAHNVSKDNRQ
Provide a numeric answer; units are not to be included.

1) C[C@H](Nc1ccc2c(c1F)OCCn1cc(N3C(=O)OC[C@H]3C(F)F)nc1-2)C(N)=O [Example 31]: 59
2) C[C@H](Nc1ccc2c(c1F)OCCn1cc(N3C(=O)SC[C@H]3C(F)F)nc1-2)C(N)=O [Example 50]: 81
3) C[C@@H](C(N)=O)N(C)c1ccc2c(c1)OCCn1cc(N3C(=O)SC[C@H]3C(F)F)nc1-2 [Example 54]: 31

Next item in the queue.
**Query** What does the data say about its Selectivity of PI3Kα vs PI3Kδ? Entry: C[C@H](Nc1ccc2c(c1)OCCn1cc(N3C(=O)CC[C@H]3C(F)F)nc1-2)C(N)=O [Example 46]
**Result** 90

----------
assay: Solubility experiment in different media, thermodynamic solubility at 37°C; assay type: physicochemical; settings: medium of pH 8, aqueous buffer, thermodynamic from solid; medium pH 8, 37° C., 24 hours, thermodynamic solubility
measured_endpoint: solubility at 24 h (µg/mL)
Express it in µg/mL; write the number only.

**Query** What does the data say about its solubility at 24 h? Entry: CCS(=O)(=O)O.C[C@H](Nc1ccc2c(c1)OCCn1cc(N3C(=O)SC[C@H]3C(F)F)nc1-2)C(N)=O [crystal form A of ethanesulfonate salt]
**Result** 14

----------
experiment: Solubility experiment in different media, thermodynamic solubility at 37°C; assay type: physicochemical; conditions: thermodynamic from solid; medium Fa (fasted-state simulated intestinal fluid, FaSSIF), 37° C., 24 hours, thermodynamic solubility
measured_endpoint: solubility at 24 h (µg/mL)
Express it in µg/mL; write the number only.

**Query** What does the data say about its solubility at 24 h? Entry: CCS(=O)(=O)O.C[C@H](Nc1ccc2c(c1)OCCn1cc(N3C(=O)SC[C@H]3C(F)F)nc1-2)C(N)=O [crystal form A of ethanesulfonate salt]
**Result** 44

----------
assay: Solubility experiment in different media, thermodynamic solubility at 37°C; type: physicochemical; details: medium of pH 2, simulated gastric fluid, thermodynamic from solid; medium pH 2, 37° C., 24 hours, thermodynamic solubility
measured_endpoint: solubility at 24 h (µg/mL)
Express it in µg/mL; write the number only.

**Query** What does the data say about its solubility at 24 h? Entry: CCS(=O)(=O)O.C[C@H](Nc1ccc2c(c1)OCCn1cc(N3C(=O)SC[C@H]3C(F)F)nc1-2)C(N)=O [crystal form A of ethanesulfonate salt]
**Result** 974

----------
experiment: PK studies in animals of salt crystal forms, intragastric 30 mg/kg; type: in vivo; settings: rat, in vivo, po, rats, 30 mg/kg (as free compound), 0.5% HPMC K4M suspension
We begin with a simple list: items and their reported AUC(0-inf).
Answer format: number, then unit.

Below, 2 compounds whose answers are already recorded.
1. C[C@H](Nc1ccc2c(c1)OCCn1cc(N3C(=O)SC[C@H]3C(F)F)nc1-2)C(N)=O.O=S(=O)(O)O [crystal form D of sulfate salt]: 9600 ng·h/mL
2. CCS(=O)(=O)O.C[C@H](Nc1ccc2c(c1)OCCn1cc(N3C(=O)SC[C@H]3C(F)F)nc1-2)C(N)=O [crystal form A of ethanesulfonate salt]: 10400 ng·h/mL

Next item in the queue.
**Query** What does the data say about its AUC(0-inf)? Entry: CS(=O)(=O)O.C[C@H](Nc1ccc2c(c1)OCCn1cc(N3C(=O)SC[C@H]3C(F)F)nc1-2)C(N)=O [crystal form A of mesylate salt]
**Result** 10200 ng·h/mL

----------
We begin with a simple list: items and their reported MRT inf.
experiment: PK studies in animals of salt crystal forms, intragastric 30 mg/kg; format: in vivo; settings: rat, in vivo, po, rats, 30 mg/kg (as free compound), 0.5% HPMC K4M suspension, read-out: MRT0-∞
Express it in h; write the number only.

1) C[C@H](Nc1ccc2c(c1)OCCn1cc(N3C(=O)SC[C@H]3C(F)F)nc1-2)C(N)=O.O=S(=O)(O)O [crystal form D of sulfate salt]: 5.77
2) CCS(=O)(=O)O.C[C@H](Nc1ccc2c(c1)OCCn1cc(N3C(=O)SC[C@H]3C(F)F)nc1-2)C(N)=O [crystal form A of ethanesulfonate salt]: 6.98

Next item in the queue.
**Query** What does the data say about its MRT inf? Entry: CS(=O)(=O)O.C[C@H](Nc1ccc2c(c1)OCCn1cc(N3C(=O)SC[C@H]3C(F)F)nc1-2)C(N)=O [crystal form A of mesylate salt]
**Result** 6.52

----------
Molecular target: PI3Kβ (Homo sapiens)
Construct: purchased Carna #11-102
Sequence (P42338 whole entry): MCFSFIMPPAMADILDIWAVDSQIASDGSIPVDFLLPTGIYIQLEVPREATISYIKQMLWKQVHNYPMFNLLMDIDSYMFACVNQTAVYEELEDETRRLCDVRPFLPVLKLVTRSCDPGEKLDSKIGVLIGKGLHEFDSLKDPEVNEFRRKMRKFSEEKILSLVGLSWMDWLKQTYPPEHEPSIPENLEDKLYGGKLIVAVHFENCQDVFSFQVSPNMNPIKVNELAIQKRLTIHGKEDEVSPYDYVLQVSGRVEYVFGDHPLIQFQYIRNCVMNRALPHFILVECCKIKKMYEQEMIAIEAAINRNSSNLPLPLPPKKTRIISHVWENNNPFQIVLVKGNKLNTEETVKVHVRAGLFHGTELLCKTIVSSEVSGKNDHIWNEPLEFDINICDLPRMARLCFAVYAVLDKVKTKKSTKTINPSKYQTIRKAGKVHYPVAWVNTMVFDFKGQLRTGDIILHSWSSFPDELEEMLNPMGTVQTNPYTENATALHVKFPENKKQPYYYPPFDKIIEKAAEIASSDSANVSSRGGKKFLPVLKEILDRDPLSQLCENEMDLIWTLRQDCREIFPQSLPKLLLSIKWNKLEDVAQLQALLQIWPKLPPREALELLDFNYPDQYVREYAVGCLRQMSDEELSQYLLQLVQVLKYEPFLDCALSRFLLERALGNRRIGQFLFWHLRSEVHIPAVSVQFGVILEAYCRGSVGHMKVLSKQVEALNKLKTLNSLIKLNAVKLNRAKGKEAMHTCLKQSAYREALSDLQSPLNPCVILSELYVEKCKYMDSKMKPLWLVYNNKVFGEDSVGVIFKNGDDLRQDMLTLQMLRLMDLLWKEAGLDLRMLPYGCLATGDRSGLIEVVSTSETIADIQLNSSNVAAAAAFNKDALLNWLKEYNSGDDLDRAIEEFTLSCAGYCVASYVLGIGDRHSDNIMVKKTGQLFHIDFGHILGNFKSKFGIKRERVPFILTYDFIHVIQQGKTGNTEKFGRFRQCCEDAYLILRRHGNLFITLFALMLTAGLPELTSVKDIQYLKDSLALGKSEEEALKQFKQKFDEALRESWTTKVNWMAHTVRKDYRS
Sequence (P27986 whole entry partner): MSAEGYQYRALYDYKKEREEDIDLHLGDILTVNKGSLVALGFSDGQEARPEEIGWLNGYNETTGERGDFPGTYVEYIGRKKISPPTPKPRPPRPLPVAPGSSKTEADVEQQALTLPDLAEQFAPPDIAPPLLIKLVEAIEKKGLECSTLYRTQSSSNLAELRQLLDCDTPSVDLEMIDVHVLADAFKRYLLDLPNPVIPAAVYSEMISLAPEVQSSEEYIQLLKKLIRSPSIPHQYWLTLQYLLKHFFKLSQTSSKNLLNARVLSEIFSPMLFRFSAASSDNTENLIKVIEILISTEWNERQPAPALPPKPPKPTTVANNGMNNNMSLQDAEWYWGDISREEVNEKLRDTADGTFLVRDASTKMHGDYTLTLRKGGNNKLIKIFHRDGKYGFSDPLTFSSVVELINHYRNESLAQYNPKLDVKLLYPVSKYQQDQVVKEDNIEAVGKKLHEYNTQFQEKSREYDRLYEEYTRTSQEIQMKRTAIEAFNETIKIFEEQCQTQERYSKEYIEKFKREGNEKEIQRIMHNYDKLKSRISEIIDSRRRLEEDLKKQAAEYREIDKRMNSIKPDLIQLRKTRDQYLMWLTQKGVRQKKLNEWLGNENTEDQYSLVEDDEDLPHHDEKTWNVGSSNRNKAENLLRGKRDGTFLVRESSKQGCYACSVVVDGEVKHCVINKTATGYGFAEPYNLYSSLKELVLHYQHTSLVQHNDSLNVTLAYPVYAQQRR
Experiment: ADP-Glo Lipid Kinase Assay, PI3Kβ kinase activity
Format: biochemical
Conditions: ratio of IC50 values
Description: In this experiment, ADP-Glo Lipid Kinase Assay (Promega #V9102) from Promega was used. The lipid kinases PI3Kα/β/γ/δ catalyzed the ATP-to-ADP reaction in the presence of the substrate PIP2:3PS and ATP. […] Kinase reactions were carried out in white 384-well plates (Perkin Elmer #6007299). […] After the reaction was carried out for 20 minutes at room temperature in the dark, the chemiluminescence was measured by BioTek Synergy H1 microplate reader. […]
Our labelling divides records by Selectivity of PI3Kα vs PI3Kβ into ranges: low = under 300, middle = from 300 up to 800, high = 800 and over

These solved cases illustrate the format of a correct answer.
1) C[C@H](Nc1ccc2c(c1)OCCn1cc(N3C(=O)SC[C@H]3C(F)F)nc1-2)C(N)=O: high
2) C[C@@H](C(N)=O)N(C)c1ccc2c(c1)OCCn1cc(N3C(=O)OC[C@H]3C(F)F)nc1-2: middle
3) C[C@H](Nc1ccc2c(c1)OCCn1c-2nc(N2C(=O)OC[C@H]2C(F)F)c1F)C(N)=O: high
4) C[C@H](Nc1ccc2c(c1)SCCn1cc(N3C(=O)OC[C@H]3C(F)F)nc1-2)C(N)=O: high
5) C[C@H](Nc1ccc2c(c1)N(C)CCn1cc(N3C(=O)OC[C@H]3C(F)F)nc1-2)C(N)=O: middle
6) CC(C)[C@H](Nc1ccc2c(c1)OCCn1cc(N3C(=O)OC[C@H]3C(F)F)nc1-2)C(N)=O: middle

**Query** Bin this entry: C[C@@H](C(N)=O)N(C)c1ccc2c(c1)OCCn1cc(N3C(=O)SC[C@H]3C(F)F)nc1-2
**Result** low

**Query** What about C[C@H](Nc1ccc2c(c1F)OCCn1cc(N3C(=O)OC[C@H]3C(F)F)nc1-2)C(N)=O ?
**Result** low

----------
target: PI3Kβ (Homo sapiens); construct: purchased Carna #11-102; experiment: ADP-Glo Lipid Kinase Assay, PI3Kβ kinase activity; assay type: biochemical; conditions: ratio of IC50 values
In plain terms, low Selectivity of PI3Kα vs PI3Kβ, meaning strictly below 800, gives 1, and everything else gives -1.

These solved cases illustrate the format of a correct answer.
1) COC[C@H](Nc1ccc2c(c1F)OCCn1cc(N3C(=O)SC[C@H]3C(F)F)nc1-2)C(N)=O: 1
2) C[C@H](Nc1cc(F)c2c(c1)OCCn1cc(N3C(=O)OC[C@H]3C(F)F)nc1-2)C(N)=O: 1
3) C[C@H](Nc1ccc2c(c1)OCCn1cc(N3C(=O)N(C)C[C@H]3C(F)F)nc1-2)C(N)=O: -1

Query molecule follows.
**Query** In plain terms, does COC[C@H](Nc1ccc2c(c1)OCCn1cc(N3C(=O)SC[C@H]3C(F)F)nc1-2)C(N)=O come in under 800 for Selectivity of PI3Kα vs PI3Kβ?
**Result** 1
